# Target: thrombin (human, UniProt P00734;P00734 328-363;364-622)
# Assay Protocol: affinity probe capillary electrophoresis
Readout Kind: pKd
The read-out pKd is expressed as -log10 of concentration in moles per litre.

Given the entry GGTTGGTGTGGTTGG (structured_DNA) [15mer, Texas Red] , report its measured pKd.
8.35

Source listed as paper PMC8372783.
